Source listed as paper PMC4405178.

Biological target: T1, C-terminally truncated Ste2p F38Y (Saccharomyces cerevisiae, UniProt D6VTK4 1-303, F38Y)
T1 sequence (looked up): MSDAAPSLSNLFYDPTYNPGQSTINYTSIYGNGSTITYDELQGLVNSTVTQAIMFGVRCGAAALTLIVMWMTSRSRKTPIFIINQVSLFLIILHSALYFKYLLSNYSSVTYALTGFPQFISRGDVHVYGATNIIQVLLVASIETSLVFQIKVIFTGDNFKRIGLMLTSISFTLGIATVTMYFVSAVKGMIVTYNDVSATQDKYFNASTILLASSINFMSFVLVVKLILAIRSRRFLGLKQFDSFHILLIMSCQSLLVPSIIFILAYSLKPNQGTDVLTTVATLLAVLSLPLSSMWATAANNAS
Test: flow cytometry on cells
pKd: −log10 of the molar value.

binder	pKd
WHWLQLKPGQPMY (NBD (7-nitrobenz-2-oxa-1,3-diazol-4-yl) conjugated to the lysine at position 7; norleucine at position 12 in place of methionine) [[K^7(NBD),Nle^12] α-factor]	7.23
